Each record here notes measured growth.
- System: M14 melanoma
- TEST_SUMMARY: NCI-60 one-dose screen, 48 h (100 = growth as untreated, 0 = no growth, -100 = all killed)
- EXPERIMENTAL_SETUP: 10 µM
This is part of a sample that, as a whole, favours compounds with a hit. Of some 83,000 tested, about 20% had one in any assay. Active and inactive are the calls of the source. Rule for the calls: active = growth percent below 10; inactive = the rest.

- MOLECULE: "CCOP(=O)(OCC)O[C@H]1CCC(=O)[C@@H]2[C@H]1[C@H]1C[C@@H]3[C@@]4(C)CCCC(C)(C(=O)OC)[C@@H]4CC[C@@]23C=C1C(C)C (some centres undefined)"
  TESTED_SYSTEM: "M14 melanoma"
  growth: "55.4% (inactive)"
- MOLECULE: "O=C(Nc1cccc(C(F)(F)F)c1)c1cncc(C#Cc2cnc3ccc(N4CCOCC4)nn23)c1"
  TESTED_SYSTEM: "M14 melanoma"
  growth: "-49.3% (active)"
- MOLECULE: "Cc1cc(C)nc(/N=C(\\N)Nc2ccc(S(=O)(=O)Nc3nc(C)cc(C)n3)cc2)n1"
  TESTED_SYSTEM: "M14 melanoma"
  growth: "111% (inactive)"
- MOLECULE: "CCOC(=O)C1NN(c2ccc(S(N)(=O)=O)cc2)c2nc3nc(-c4cccs4)cc(-c4cccs4)c3c(=O)n21 (centres undefined)"
  TESTED_SYSTEM: "M14 melanoma"
  growth: "74% (inactive)"

###

- Test system: DU-145 prostate
- TEST_SUMMARY: NCI-60 one-dose screen, 48 h (100 = growth as untreated, 0 = no growth, -100 = all killed)
- EXPERIMENTAL_SETUP: 10 µM
About 83,000 compounds went through this panel and 20% of them were active in at least one assay; those are over-represented in the sample as a whole. Activity calls are given as the source filed them. How the source made its calls: active means growth percent below 10; inactive means the rest.
Each record here notes measured growth.

- MOLECULE: "Nc1nc(-c2ccccc2)cs1"
  growth: "66.7% (inactive)"
- MOLECULE: "COc1cc2c3c(n(CCCN4CCOCC4)c(=O)c2cc1OC)-c1nc2c(cc1C3=O)OCO2"
  growth: "3.38% (active)"
- MOLECULE: "O=C(NC(=S)N1CCN(c2ncnc3c2cnn3-c2ccccc2)CC1)c1ccc(Cl)cc1"
  growth: "81.1% (inactive)"
- MOLECULE: "COc1cc(-c2nc3cc(Cl)c(Cl)cc3[nH]2)ccc1OCc1nnc(-c2ccc(Br)cc2)o1"
  growth: "47.2% (inactive)"
- MOLECULE: "COc1ccc(-c2cc(-c3cc(C(=O)c4ccccc4)n4ccc(C)cc34)nc(N)c2C#N)cc1"
  growth: "77.9% (inactive)"
- MOLECULE: "O=C(Nc1ccc(OCc2ccccc2)cc1)Nc1ccc(Cl)c(C(F)(F)F)c1"
  growth: "13% (inactive)"
- MOLECULE: "COc1cc(/C=N/NC(=O)c2ccc3nc(-c4ccc(Cl)cc4)[nH]c3c2)cc(OC)c1OC"
  growth: "-28.7% (active)"
- MOLECULE: "O=C(c1ccc(Cl)cc1)C1[C@H](c2ccccc2Br)[C@@H](c2ccccc2)NC12C(=O)Nc1ccc(Cl)cc12 (stereo not given in full)"
  growth: "29.1% (inactive)"
- MOLECULE: "NC(=Nc1ccc(OCCCCCCCCn2ccnn2)cc1)c1ccccc1"
  growth: "26.7% (inactive)"
- MOLECULE: "O=C(c1ccc(Cl)cc1)C1[C@H](c2ccc(Br)cc2)[C@@H](c2ccccc2)NC12C(=O)Nc1ccccc12 (stereo not given in full)"
  growth: "12.4% (inactive)"
- MOLECULE: "COc1csc(/C=N/NC(=O)c2[nH]c3ccc(Br)cc3c2-c2ccccc2)c1"
  growth: "7.13% (active)"
- MOLECULE: "CC[C@]12C=CCN3CC[C@@]4(c5cc(C#CCNc6ccc(C)c(Nc7nccc(-c8cccnc8)n7)c6)c(OC)cc5N(C)[C@H]4[C@@](O)(C(=O)OC)[C@@H]1OC(C)=O)C32 (stereo not given in full)"
  growth: "59.7% (inactive)"
- MOLECULE: "N[C@@H](CSSC[C@H](N)C(=O)Nc1ccc(OCC2CCCC2)cc1)C(=O)Nc1ccc(OCC2CCCC2)cc1"
  growth: "-88.4% (active)"
- MOLECULE: "CN1CCN(c2ccc(Nc3nc(NCCNC(=O)c4ccc(C(F)(F)F)cc4)c4sccc4n3)cc2)CC1"
  growth: "45.7% (inactive)"
- MOLECULE: "CC(=O)c1ccc(NC(=O)NCn2c(=O)[nH]c3ccccc3c2=O)cc1"
  growth: "104% (inactive)"
- MOLECULE: "COC(=O)C(Cc1ccc(O)c(O)c1)NC(=O)C(CSC/C=C(\\C)CCCC(C)CCCC(C)CCCC(C)C)NC(C)=O (stereo not given)"
  growth: "75.5% (inactive)"
- MOLECULE: "O=C(CSc1nnc(-c2c[nH]c3ccccc23)n1-c1ccccc1)Nc1ccc(C(=O)/C=C/c2ccccc2Cl)cc1"
  growth: "82% (inactive)"
- MOLECULE: "Cc1ccc(-c2nc3ccc(C(=O)N=Nc4c(O)[nH]c5ccc(Br)cc45)cc3[nH]2)cc1"
  growth: "17.2% (inactive)"
- MOLECULE: "O=c1[nH]c2ccccc2cc1CSc1ccc(Nc2nccc(-c3ccc4c(c3)OCO4)n2)cc1"
  growth: "77.5% (inactive)"
- MOLECULE: "Cc1noc2c(Cc3ccc([N+](=O)[O-])cc3)nn(CC(=O)N/N=C/c3ccc(Cl)cc3)c(=O)c12"
  growth: "61.6% (inactive)"
- MOLECULE: "COc1ccc(CN2[C@@H](C(=O)NCc3ccc(C(=O)NO)cc3)Cc3c([nH]c4ccccc34)[C@@H]2C2CC2)cc1"
  growth: "15.8% (inactive)"
- MOLECULE: "CCCn1c(=O)c2[nH]c(-c3ccc(OCc4nc5ccc(C)cc5[nH]4)cc3)nc2n(CCC)c1=O"
  growth: "61.8% (inactive)"
- MOLECULE: "COc1ccc([C@H]2C(C(=O)c3ccc(Cl)cc3)C3(N[C@@H]2c2ccccc2)C(=O)Nc2ccc(Cl)cc23)cc1 (stereo not given in full)"
  growth: "14.6% (inactive)"
- MOLECULE: "O=C(/C=C/Nc1ccccc1)c1ccc2c(c1)Nc1ccccc1S2"
  growth: "84.3% (inactive)"
- MOLECULE: "CN1C(=O)N(C)C2SC(N/N=C/c3cccs3)=NC21 (stereo not given)"
  growth: "49.5% (inactive)"
- MOLECULE: "O=C(CSc1nnc(-c2c[nH]c3ccccc23)n1-c1ccccc1)Nc1ccc(C(=O)/C=C/c2cccc([N+](=O)[O-])c2)cc1"
  growth: "95.9% (inactive)"
- MOLECULE: "COc1cnc2c(c1)C(=O)c1c-2n(CCCNCCO)c(=O)c2cc(OC)c(OC)cc12"
  growth: "15.6% (inactive)"
- MOLECULE: "Cc1cc(C(F)(F)F)ccc1C(=O)Nc1sc2c(c1C#N)CCC(=O)C2"
  growth: "20.3% (inactive)"
- MOLECULE: "O=C(NO)c1ccc(CNC(=O)[C@H]2Cc3c([nH]c4ccccc34)[C@H](c3ccccc3)N2)cc1"
  growth: "29.5% (inactive)"
- MOLECULE: "O=C(c1ccc(Cl)cc1)C1[C@H](c2ccc(Br)cc2)[C@@H](c2ccccc2)NC12C(=O)Nc1ccc(Cl)cc12 (stereo not given in full)"
  growth: "-27.9% (active)"
- MOLECULE: "COc1ccc(OC)c(-c2cc(-c3c[nH]c4ccccc34)nc(N)c2C#N)c1"
  growth: "13% (inactive)"
- MOLECULE: "CCOc1ccc(/C=N/NC(=O)Cn2nc(Cc3ccc([N+](=O)[O-])cc3)c3onc(C)c3c2=O)cc1"
  growth: "-15.2% (active)"
- MOLECULE: "COc1ccc(-c2cc(C(=O)N=Nc3c(O)[nH]c4ccc(F)cc34)c3ccccc3n2)cc1"
  growth: "74.7% (inactive)"
- MOLECULE: "NS(=O)(=O)c1ccc(NC(=O)CSc2ccc(-c3ccccc3)nn2)c(Br)c1"
  growth: "75.9% (inactive)"
- MOLECULE: "O=C(CSc1nnc(-c2ccc3nc(-c4ccccc4)[nH]c3c2)o1)Nc1ccc(Cl)cc1"
  growth: "73.6% (inactive)"

###

- Test system: NCI/ADR-RES ovarian
- TEST_SUMMARY: NCI-60 one-dose screen, 48 h
- EXPERIMENTAL_SETUP: 10 µM
Compounds without any hit were thinned out: in the full panel of roughly 83,000, 20% have a hit. Active and inactive are the calls of the source. Rule for the calls: active = growth percent below 10; inactive = the rest.
Labels: active, inactive

- COMPOUND: "COc1ccc(N(C)c2cc(C#N)nc3ccccc23)cc1N"
  GROUP_LABEL: "active"
- COMPOUND: "NC1=NC(c2ccccc2Cl)N=C(Nc2nn[nH]n2)N1 (stereo not given)"
  GROUP_LABEL: "inactive"
- COMPOUND: "COc1cc(/C=C/C(=O)c2ccc(NC(=O)CN3C(=O)NC(C)(c4ccccc4)C3=O)cc2)cc(OC)c1OC (stereo not given)"
  GROUP_LABEL: "inactive"
- COMPOUND: "C=CCn1c(SCC(=O)Nc2ccc(C(=O)/C=C/c3ccccc3)cc2)nnc1-c1c[nH]c2ccccc12"
  GROUP_LABEL: "inactive"
- COMPOUND: "Cc1cc(C)nc(NS(=O)(=O)c2ccc(N/C(N)=N/c3nccc(-c4cccs4)n3)cc2)n1"
  GROUP_LABEL: "inactive"
- COMPOUND: "CCC(C)S(=O)(=O)c1oc(-c2ccc(C)cc2)nc1S(=O)(=O)c1ccccc1 (stereo not given)"
  GROUP_LABEL: "active"
- COMPOUND: "COc1ccc(/C=N/N=C(\\C)c2ccc3c(c2)Nc2ccccc2S3)cc1O"
  GROUP_LABEL: "inactive"
- COMPOUND: "Cc1ccc(/C=C/C(=O)c2ccc(NC(=O)CSc3nnc(-c4c[nH]c5ccccc45)n3-c3ccccc3)cc2)cc1"
  GROUP_LABEL: "inactive"
- COMPOUND: "COc1ccc(-c2nc(-c3ccccc3)c(-c3ccccc3)n2-c2ccc(S(=O)(=O)Nc3ncccn3)cc2)cc1OC"
  GROUP_LABEL: "inactive"
- COMPOUND: "Nc1nc(Nc2ccc(Cl)cc2)n(Cc2cccc(Br)c2)n1"
  GROUP_LABEL: "active"
- COMPOUND: "Cc1cc(C)nc(NS(=O)(=O)c2ccc(N/C(N)=N/c3nccc(-c4ccccc4)n3)cc2)n1"
  GROUP_LABEL: "inactive"
- COMPOUND: "CC(C)C(=O)Nc1ccc(C(=O)NC(=S)Nc2ccc(C(=O)O)cc2)cc1"
  GROUP_LABEL: "inactive"
- COMPOUND: "CN1CCc2c(sc3ncnc(N/N=C/c4cn(-c5ccccc5)nc4-c4ccc(Cl)cc4)c23)C1"
  GROUP_LABEL: "active"
- COMPOUND: "COc1ccc2[nH]c(O)c(N=NC(=O)COc3ccc(NC(=O)Nc4ccc(Cl)cc4)cc3)c2c1"
  GROUP_LABEL: "inactive"
- COMPOUND: "CC1(c2ccccc2)NC(=O)N(CC(=O)Nc2ccc(C(=O)/C=C/c3ccc(Br)cc3)cc2)C1=O (stereo not given)"
  GROUP_LABEL: "inactive"
- COMPOUND: "COc1ccc(/C=C/C(=O)c2ccc(NC(=O)CN3C(=O)NC(C)(c4ccccc4)C3=O)cc2)cc1 (stereo not given)"
  GROUP_LABEL: "inactive"
- COMPOUND: "COc1ccc(N(C)c2cc(C#N)nc3ccccc23)cc1/C=C/C(=O)NO"
  GROUP_LABEL: "active"
- COMPOUND: "CCOC(=O)CNC(=O)CN(Cc1ccccc1)C(=O)[C@@]1(C)CCC[C@]2(C)[C@H]3CC4C(C(C)C)=C[C@]3(CC[C@H]21)[C@@H]1C(=O)CCC(=O)[C@H]41"
  GROUP_LABEL: "inactive"
- COMPOUND: "COc1ccc2ncc(C#Cc3cncc(C(=O)Nc4ccc(CN5CCN(C)CC5)c(C(F)(F)F)c4)c3)n2n1"
  GROUP_LABEL: "active"
- COMPOUND: "O=C1Nc2cc(Cl)ccc2/C1=C/c1ccc(OCc2ccc(Br)cc2F)cc1"
  GROUP_LABEL: "active"
- COMPOUND: "O=C(c1ccc(O)cc1)C1[C@H](c2ccccc2Br)[C@@H](c2ccccc2)NC12C(=O)Nc1ccc(Br)cc12 (stereo not given in full)"
  GROUP_LABEL: "inactive"
- COMPOUND: "COc1cnc2c(c1)C(=O)c1c-2n(CCCNC(C)C)c(=O)c2cc(OC)c(OC)cc12"
  GROUP_LABEL: "inactive"
- COMPOUND: "COc1cc(C2CC(c3ccccc3)=Nc3c(N)nc(N)nc3N2)ccc1Oc1nc(Nc2ccc(F)cc2)nc(N(C)C)n1 (stereo not given)"
  GROUP_LABEL: "inactive"
- COMPOUND: "CN1CCN(Cc2ccc(C(=O)Nc3cccc(Nc4ccc5cc(O)ccc5n4)c3)cc2C(F)(F)F)CC1"
  GROUP_LABEL: "inactive"
- COMPOUND: "CC1=C(c2cc(-c3ccc(Cl)cc3)c(C#N)c(N)n2)C(c2ccccc2)NC(=S)N1 (stereo not given)"
  GROUP_LABEL: "inactive"
- COMPOUND: "O=C(Nc1nc2ccc([N+](=O)[O-])cc2s1)Nc1ccccc1I"
  GROUP_LABEL: "active"
- COMPOUND: "O=C(CSc1nnc(-c2ccc3nc(-c4ccccc4)[nH]c3c2)o1)Nc1ccc(Br)cc1"
  GROUP_LABEL: "inactive"
- COMPOUND: "Cc1ccc([N+](=O)[O-])c(C(=O)Nc2ccc(-c3ccc4c(c3)NC(=O)/C4=C\\c3ccc[nH]3)cc2)c1"
  GROUP_LABEL: "inactive"
- COMPOUND: "CN1CCO/C1=C(/NC(=O)c1ccc(Cl)cc1)[P+](c1ccccc1)(c1ccccc1)c1ccccc1"
  GROUP_LABEL: "inactive"
- COMPOUND: "Cc1ccc(-c2nc(Nc3ccccc3C(=O)O)c3ccccc3n2)cc1"
  GROUP_LABEL: "active"
- COMPOUND: "COc1ccc2[nH]cc(/C=N/Nc3ccc(Br)cn3)c2c1"
  GROUP_LABEL: "active"
- COMPOUND: "CC(=O)Nc1ccc(-c2cn(-c3cccc(C(=O)Nc4cc(C(F)(F)F)cc(C(F)(F)F)c4)c3)nn2)cn1"
  GROUP_LABEL: "active"
- COMPOUND: "CC(=O)c1ccc(Nc2nc(SCCC(C)C)nc(-c3ccc(F)cc3)c2C#N)cc1"
  GROUP_LABEL: "inactive"
- COMPOUND: "O=C(CSc1nnc(-c2ccc3nc(-c4ccc(Cl)cc4)[nH]c3c2)o1)Nc1ccc(Cl)cc1"
  GROUP_LABEL: "inactive"
- COMPOUND: "C=C(C)[C@@H]1CC[C@]2(COP(=O)(OCC)OCC)CC[C@]3(C)[C@H](CC[C@@H]4[C@@](C)(CCCN)[C@H](C(=C)C)CC[C@]43C)[C@@H]12"
  GROUP_LABEL: "inactive"
